Target Under Test: TSLP, Q969D9
Test Details: Kd (SPR)
Measurement Kind: pKd
Remember, pKd is on a log scale: it is -log10 of the molar concentration.

Use the examples below as a reference point.
{"Binder": "unnamed (protein) chain 1: QMQLVESGGGVVQPGRSLRLSCAASGFTFRTYGMHWVRQAPGKGLEWVAVIWYDGSNKHYADSVKGRFTITRDNSKNTLNLQMNSLRAEDTAVYYCARGPMALLYYRGFDYWGQGTMVTVSS chain 2: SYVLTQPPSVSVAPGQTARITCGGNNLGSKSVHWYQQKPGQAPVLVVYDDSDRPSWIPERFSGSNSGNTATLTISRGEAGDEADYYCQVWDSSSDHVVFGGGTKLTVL", "Readout Value": 6.74}
{"Binder": "unnamed (protein) chain 1: QMQLVESGGGVVQPGRSLRLSCAASGFTFSTFAMHWVRQAPGKGLEWVAVIWYDGSNKHYADSVKGRFTITRDNSKNTLNLQMNSLRAEDTAVYYCARAPRYYDYYEAFDVWGQGTMVTVSS chain 2: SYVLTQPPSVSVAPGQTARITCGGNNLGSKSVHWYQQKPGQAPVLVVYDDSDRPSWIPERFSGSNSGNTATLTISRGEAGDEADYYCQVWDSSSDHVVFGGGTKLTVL", "Readout Value": 7.25}

# return recorded pKd for input unnamed (protein) chain 1: QMQLVESGGGVVQPGRSLRLSCAASGFTFRTYGMHWVRQAPGKGLEWVAVIWYDGSNKHYADSVKGRFTITRDNSKNTLNLQMNSLRAEDTAVYYCANLKDSRYSGSYYDYWGQGTMVTVSS chain 2: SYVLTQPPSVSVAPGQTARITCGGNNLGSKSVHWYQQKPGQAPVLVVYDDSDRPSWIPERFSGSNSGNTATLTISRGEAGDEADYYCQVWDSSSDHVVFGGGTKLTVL
6.28

# credit: the FLAb antibody collection (doi:10.1101/2023.12.08.570889)
